Kindly find below IC50 information for Receptor tyrosine-protein kinase erbB-2 (Homo sapiens, UniProt P04626) taken from the literature.
endpoint-name: IC50

>>> reported_value("CCCCOc1cc(NC(=S)Nc2ccccc2)nc(N)c1C(=O)c1c(F)cccc1F")
"> 100 µM"
>>> reported_value("CO/N=C/c1c(N)ncnc1Nc1ccc(Oc2cccnc2)c(Cl)c1")
"0.05 µM"
>>> reported_value("c1ccc(Cn2ncc3cc(Nc4ncnc(NCC5CCCCC5)n4)ccc32)cc1")
"> 10.9 µM"
>>> reported_value("Fc1ccc(Nc2ncnc3[nH]c(-c4ccc(CN5CCOCC5)cc4)cc23)cc1Cl")
"0.011 µM"
>>> reported_value("CCOC(=O)c1sc2nc(-c3cc(F)ccc3Cl)c(C#N)c3c2c1NC(=O)N3c1ccncc1")
"> 100 µM"
>>> reported_value("c1ccc(Cn2ncc3cc(Nc4ncnc(NCc5ccco5)n4)ccc32)cc1")
"> 11.3 µM"
>>> reported_value("Nc1ncnc(Nc2ccc3c(ccn3Cc3cccc(F)c3)c2)c1/C=N/OCCN1CCCCC1")
"0.14 µM"
>>> reported_value("Nc1ncnc2nn3ccccc3c12")
"> 10 µM"
>>> reported_value("N#Cc1cnc2sc(C(=O)Nc3ccc(CN4CCOCC4)cc3)c3c2c1N(c1ccc(Oc2ccccc2)cc1)C(=O)N3")
"2.2 µM"
>>> reported_value("COc1cc(Nc2ncnc(N[C@@H]3CCCc4ccccc43)n2)cc(OC)c1OC")
"8.59 to 11 µM"
>>> reported_value("CN1CCN(CC(=O)NCC#Cc2cc3ncnc(Nc4ccc(OCc5cccc(F)c5)c(Cl)c4)c3s2)CC1")
"< 0.0316 µM"
